system tested: mGluR5 (Homo sapiens, UniProt P41594)
Sequence (P41594 21-1212): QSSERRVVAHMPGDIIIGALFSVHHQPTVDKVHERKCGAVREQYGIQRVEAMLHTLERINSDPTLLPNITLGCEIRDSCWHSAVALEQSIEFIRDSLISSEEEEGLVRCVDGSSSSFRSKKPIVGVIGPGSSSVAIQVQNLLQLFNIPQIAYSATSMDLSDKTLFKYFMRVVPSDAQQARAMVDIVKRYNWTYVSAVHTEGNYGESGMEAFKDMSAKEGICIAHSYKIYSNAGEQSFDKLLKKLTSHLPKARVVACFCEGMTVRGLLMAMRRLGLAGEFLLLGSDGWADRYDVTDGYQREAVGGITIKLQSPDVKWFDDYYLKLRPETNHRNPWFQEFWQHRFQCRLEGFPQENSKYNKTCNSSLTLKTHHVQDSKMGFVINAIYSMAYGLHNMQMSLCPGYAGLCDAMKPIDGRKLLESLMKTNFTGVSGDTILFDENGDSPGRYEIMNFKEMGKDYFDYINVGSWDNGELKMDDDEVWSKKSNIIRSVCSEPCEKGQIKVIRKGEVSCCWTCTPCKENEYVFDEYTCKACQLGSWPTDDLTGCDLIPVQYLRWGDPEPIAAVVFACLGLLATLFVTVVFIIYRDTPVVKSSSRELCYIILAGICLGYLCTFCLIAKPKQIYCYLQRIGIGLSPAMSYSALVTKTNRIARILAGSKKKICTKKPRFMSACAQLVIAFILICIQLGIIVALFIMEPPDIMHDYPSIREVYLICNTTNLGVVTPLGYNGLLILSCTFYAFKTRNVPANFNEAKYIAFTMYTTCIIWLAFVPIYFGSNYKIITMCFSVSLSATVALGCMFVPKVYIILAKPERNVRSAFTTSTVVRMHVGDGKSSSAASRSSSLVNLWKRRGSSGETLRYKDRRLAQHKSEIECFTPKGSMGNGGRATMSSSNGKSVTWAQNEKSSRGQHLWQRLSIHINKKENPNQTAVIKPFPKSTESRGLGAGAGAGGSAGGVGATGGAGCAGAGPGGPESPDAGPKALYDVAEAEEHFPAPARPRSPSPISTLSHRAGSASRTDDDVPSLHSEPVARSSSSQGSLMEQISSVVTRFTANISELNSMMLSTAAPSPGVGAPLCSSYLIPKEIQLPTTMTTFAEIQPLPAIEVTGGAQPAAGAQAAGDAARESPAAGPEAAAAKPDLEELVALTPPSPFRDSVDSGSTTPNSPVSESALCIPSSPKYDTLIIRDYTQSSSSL
assay overview: Fluorescence-based Ca2+ mobilization assay
study conditions: HEK293 cells overexpressing mGluR5; L-glutamate at EC80
pIC50: −log10 of the molar value.
Listing of recorded pIC50 by entry.

Example cases with answers are listed next.
CCC1(CNC(=O)c2ccc(C#Cc3ccc(F)cc3F)cc2)COC1 :: 6.30 to 7.00
O=C(NCC1(NC2CC2)CCC1)c1ccc(C#Cc2ccc(F)cc2)cc1 :: 6.00 to 6.30
O=C(O)CCC1(CNC(=O)c2ccc(C#Cc3ccccc3F)cc2)CCCCC1 :: 5.70 to 6.00

Next, consider the following compound.
Asked: Give recorded pIC50 with mGluR5 (Homo sapiens, UniProt P41594) for the following compound: O=C(NCC1(F)CCOCC1)c1ccc(C#Cc2ccccc2F)cc1
Given back: > 7.00

* * *

system tested: UniProtKB P28223
assay overview: HTRF-based IP1 accumulation assay (5-HT2AR antagonistic effect)
study conditions: HEK293 cells overexpressing human 5-HT2AR; serotonin at EC80
List of IC50 values.

Here is how some compounds turned out for IC50.
O=C(NCC1CCC(F)(F)CC1)c1ccc(C#Cc2ccncc2)cc1 :: 500 to 1000 nM
O=C(NCC1CCCO1)c1ccc(C#Cc2ccccc2F)cc1 (centres unmarked) :: 500 to 1000 nM
NC(=O)CC1(CNC(=O)c2ccc(C#Cc3ccccc3F)cc2)CCCCC1 :: 1000 to 2000 nM

Here is another compound to look at.
Asked: Sample O=C(NCC1CC(F)(F)C1)c1ccc(C#Cc2ccccc2F)cc1 — what was its IC50?
Given back: 100 to 500 nM

* * *

system tested: UniProt:P41594
assay overview: Fluorescence-based Ca2+ mobilization assay
study conditions: HEK293 cells overexpressing mGluR5; L-glutamate at EC80
pIC50: −log10 of the molar value.
readout kind: pIC50

O=C(NCC1(NC2CC2)CCCCC1)c1ccc(C#Cc2ccccc2F)cc1 :: 6.00 to 6.30

Asked: Under UniProt:P41594: pIC50 value of [2H]C(NC(=O)c1ccc(C#Cc2ccccc2F)cc1)C1(C)COC1 (stereo not shown) ?
Given back: > 7.00

Asked: What pIC50 appears in the records for this compound with UniProt:P41594? O=C(NCC1(NC2CC2)CCCC1)c1ccc(C#Cc2ccc(F)cc2)cc1
Given back: 6.00 to 6.30

Asked: Quick check: pIC50 on UniProt:P41594, item O=C(NCC1CC(F)(F)C1)c1ccc(C#Cc2ccncc2)cc1 ?
Given back: > 7.00

* * *

system tested: human 5-HT2AR (Homo sapiens)
Sequence (P28223 whole entry): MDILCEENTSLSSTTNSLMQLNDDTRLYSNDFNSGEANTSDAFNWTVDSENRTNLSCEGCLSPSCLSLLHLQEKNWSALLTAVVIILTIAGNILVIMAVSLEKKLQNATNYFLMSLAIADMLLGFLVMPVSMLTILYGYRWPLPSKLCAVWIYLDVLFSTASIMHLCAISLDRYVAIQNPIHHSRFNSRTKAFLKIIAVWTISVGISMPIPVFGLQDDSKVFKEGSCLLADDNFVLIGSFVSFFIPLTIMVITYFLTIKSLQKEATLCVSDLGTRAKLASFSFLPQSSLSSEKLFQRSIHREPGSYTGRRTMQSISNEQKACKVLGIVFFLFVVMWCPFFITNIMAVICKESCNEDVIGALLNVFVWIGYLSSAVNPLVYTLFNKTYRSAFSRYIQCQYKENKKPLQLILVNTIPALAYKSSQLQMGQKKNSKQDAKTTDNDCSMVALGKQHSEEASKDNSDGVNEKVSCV
assay overview: HTRF-based IP1 accumulation assay (5-HT2AR antagonistic effect)
study conditions: HEK293 cells overexpressing human 5-HT2AR; serotonin at EC80
readout kind: IC50

Asked: State its IC50 on human 5-HT2AR (Homo sapiens): O=C(NC[C@H]1CCOC1)c1ccc(C#Cc2ccc(F)cc2)cc1
Given back: 100 to 500 nM

* * *

Measured IC50 accompanies every entry in the list below.
system tested: mGluR5 (Homo sapiens, UniProt P41594)
assay overview: Fluorescence-based Ca2+ mobilization assay
study conditions: HEK293 cells overexpressing mGluR5; L-glutamate at EC80

A selection of reference data follows.
O=C(NC[C@@H]1CCCOC1)c1ccc(C#Cc2ccc(F)cc2F)cc1 [Example 124] :: 100 to 500 nM
CC1(CNC(=O)c2ccc(C#Cc3ccccc3F)cc2)CCCO1 (stereo not drawn) [Example 98] :: < 100 nM
CC(C)(C)CNC1(CNC(=O)c2ccc(C#Cc3ccccc3F)cc2)CCCCC1 [Example 28] :: 1000 to 2000 nM
O=C(NCC1(CF)CCOCC1)c1ccc(C#Cc2ccccc2F)cc1 [Example 50] :: < 100 nM
O=C(NC[C@H]1CCCO1)c1ccc(C#Cc2ccccc2F)cc1 [Example 45] :: < 100 nM
O=C(NCC1(NC2CC2)CCCC1)c1ccc(C#Cc2ccncc2)cc1 [Example 2] :: 500 to 1000 nM

Asked: Bench note: what IC50 did O=C(NC[C@H]1CCOC1)c1ccc(C#Cc2ccc(F)cc2)cc1 [Example 101] show?
Given back: < 100 nM
